From: patent US20260242478A1

- assay-target: T1, PSMA Fab (006 PSMA Fab) (biotinylated (site not stated))
- T1 construct: Biotinylated PSMA Fab captured on neutravidin coated plates in the phage ELISA; also called Anti-PSMA Fab; anti-PSMA Fab
- assay-details: clonal phage supernatant on biotinylated PSMA Fab captured on neutravidin plate, anti-M13-HRP detection;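 note: before phage were added, wells received PSMA antigen in blocking buffer or blocking buffer alone, with no wash in between, followed by a short phage incubation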
Where no end group is shown, it is not given here.
We begin with a simple list: items and their reported Phage binding ELISA signal, Anti-PSMA Fab.
Format: numeric value only, no unit, no commentary.

For orientation, consider the following solved cases.
- binder: "MSMSCVPLWMCSGF (not shown: pIII filament protein of the bacteriophage) [Phage-3705]"
  observed: 1.43
- binder: "EGRYCVPDWMCLGL (cysteine pairing not given here; also: displayed on phage as pIII fusion, not shown: pIII filament protein of the bacteriophage) [Phage-3710]"
  observed: 1.43

-- ask Which Phage binding ELISA signal, Anti-PSMA Fab value belongs to GDVRCVPSWMCEGY (not shown: pIII filament protein of the bacteriophage) [Phage-3704] ?
-- reply 1.43

-- ask Cool, now PGALCVPFWMCQGF (not shown: pIII filament protein of the bacteriophage) [Phage-3702]
-- reply 1.44

-- ask Also VDHMCKPMWMCNGF (not shown: pIII filament protein of the bacteriophage) [Phage-3707] ?
-- reply 1.43

-- ask Item: EVWMCRPSWMCDGF (cysteine pairing not given here; also: displayed on phage as pIII fusion, not shown: pIII filament protein of the bacteriophage) [Phage-3712]
-- reply 1.43
